Below: a set of entries, each annotated with reported Active Drug t1/2 (chemical half-life).
test.conditions: ph stat, naoh titration
Supply the numeric figure in min, leaving out any unit text.

Study these solved cases before continuing.
### Prompt What measured Active Drug t1/2 (chemical half-life) goes with CS(=O)(=O)OCCN(CCCl)c1ccc(C(=O)O)cc1 [Compound 29, reference compound] ?
### Response 58

### Prompt How about this compound: CS(=O)(=O)OCCN(CCCl)c1ccc(C(=O)O)cc1F
### Response 2.4

### Prompt How about this compound: CS(=O)(=O)OCCN(CCCl)c1ccc(C(=O)O)c(F)c1
### Response 192

Now examine the next entry.
### Prompt What measured Active Drug t1/2 (chemical half-life) goes with CS(=O)(=O)OCCN(CCOS(C)(=O)=O)c1ccc(C(=O)O)cc1F ?
### Response 1.9
